Hi there, I'd appreciate the recorded Remaining mRNA in % of controls at siRNA conc. of 30 nM for every entry that follows.
system: PCSK9 mRNA; assay: In vitro screening of modified dsRNAs targeted to PCSK9 (Table 2b; cell type not given); type: cell-based; settings: 30 nM siRNA
In the oligonucleotide strings, read from the 5' end, every base follows the letter of its sugar. An asterisk marks phosphorothioate; unmarked linkages are phosphodiester. Other units and linkages are bracketed, terminal groups are in braces. A string of capitals states the bases alone. e = 2'-O-(2-methoxyethyl) (MOE); d = 2'-deoxy (DNA); m = 2'-O-methyl; r = 2'-OH (RNA)
Numbers only, in %.

Example entries begin here.
| substance | measured.result |
| --- | --- |
| AD-12368: modified dsRNA, SEQ ID NO:1433/1434 (chain 1 GCCUGGAGUUUAUUCGGAATT; chain 2 rUrUrCrCrGrArAmUrArArArCrUrCmCrArGrGrCdT*dT; chain 1: DNA at T, 2'-MOE at CU, RNA at AG, linkages o19 s1 (s phosphorothioate, o phosphodiester), methylation of C and T or U not given here) | 40 |
| AD-12361: modified dsRNA, SEQ ID NO:1419/1420 (chain 1 GCCUGGAGUUUAUUCGGAA; chain 2 rUrUrCrCrGrArAmUrArArArCrUrCmCrArGrGrCdT*dT; chain 1: sugars from the 5' end rererererererererer, all phosphodiester, methylation of C and T or U not given here) | 20 |

Moving on to another substance below.
Q: Which Remaining mRNA in % of controls at siRNA conc. of 30 nM value is on record for AD-12364: modified dsRNA, SEQ ID NO:1425/1426 (chain 1 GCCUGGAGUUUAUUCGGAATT; chain 2 rUrUrCrCrGmAmArUrAmAmArCrUrCrCrAmGmGmCdT*dT; chain 1: sugars from the 5' end rerererererererererdd, linkages o19 s1 (s phosphorothioate, o phosphodiester), methylation of C and T or U not given here) ?
Result: 25

###

Hi there, I'd appreciate the recorded Mean percent remaining mRNA transcript at siRNA concentration/in cell type 3 nM/HepG2 for every entry that follows.
tested on: PCSK9 mRNA; assay: PCSK9 siRNA screening in HepG2 cells (lipofectamine 2000 transfection, PCSK9 mRNA by Quantigene, normalized to GAP-DH); type: cell-based, human; conditions: 3 nM siRNA
In the oligonucleotide strings, read from the 5' end, every base follows the letter of its sugar. An asterisk marks phosphorothioate; unmarked linkages are phosphodiester. Other units and linkages are bracketed, terminal groups are in braces. A string of capitals states the bases alone. d = 2'-deoxy (DNA); m = 2'-O-methyl; r = 2'-OH (RNA)

Example entries begin here.
| substance | measured.result |
| --- | --- |
| AD-9760: PCSK9 siRNA (sense mCmUmCmUrGmUmUrGmCmCmUmUmUmUmUrAmCrArGdT*dT; antisense rCrUrGmUrArArArArArGrGmCrArAmCrArGrArGdT*dT) | 27% |
| AD-9634: PCSK9 siRNA (sense rCrUrCrUrGrUrUrGrCrCrUrUrUrUrUrArCrArGdT*dT; antisense rCrUrGrUrArArArArArGrGrCrArArCrArGrArGdT*dT) | 30% |
| AD-9323: PCSK9 siRNA (sense rGrGrCrCrUrGrGrArGrUrUrUrArUrUrCrGrGrAdT*dT; antisense rUrCrCrGrArArUrArArArCrUrCrCrArGrGrCrCdT*dT) | 33% |
| AD-9573: PCSK9 siRNA (sense rArUrGrGrUrCrArCrCrGrArCrUrUrCrGrArGrAdT*dT; antisense rUrCrUrCrGrArArGrUrCrGrGrUrGrArCrCrArUdT*dT) | 42% |

Moving on to another substance below.
Q: Which Mean percent remaining mRNA transcript at siRNA concentration/in cell type 3 nM/HepG2 value is on record for AD-9524: PCSK9 siRNA (sense rGrCrUrGrGrUrGrCrUrArGrCrCrUrUrGrCrGrUdT*dT; antisense rArCrGrCrArArGrGrCrUrArGrCrArCrCrArGrCdT*dT) ?
Result: 28%
